STUDY_TARGET: T1, human CD79b (recombinant antigen in the ForteBio assays) (human, UniProt P40259 29-159)
T1 construct: the immunogen was CD79b protein from Sino, Cat #29750-H08H; also called huCD79b
T1 sequence (looked up): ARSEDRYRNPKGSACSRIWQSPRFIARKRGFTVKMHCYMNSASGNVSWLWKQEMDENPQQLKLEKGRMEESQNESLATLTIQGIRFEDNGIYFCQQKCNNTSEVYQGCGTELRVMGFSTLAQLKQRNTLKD
PROTOCOL_DESCRIPTION: BLI (ForteBio), antibody loaded on sensor, antigen in solution
PROPERTY_LABEL: pKd
Worth noting: pKd values are minus log10 of concentrations stated in mol/L.

hz38D9B3.11 (antibody, V domains shown, Humanized monospecific anti-CD79b antibody) VH: QVQLVQSGSELKKPGASVKVSCKASGYTFTDYSMHWVRQAPGQGLEWMGWINTETGEPSYADDFKGRFVFSLDTSVSTAYLQISSLKAEDTAVYYCYYGPYWGQGTLVTVSS VL: EIVLTQSPATLSLSPGERATLSCKASQSVDHDVDSYMDWYQQKPGQAPRLLIYSASNLESGIPARFSGSGSGTDFTLTISSLEPEDFAVYYCQQINEYPYTFGGGTKVEIK yielded pKd of 9.56

hz34F1.14 (antibody, V domains shown) VH: QVQLVQSGAEVKKPGASVKVSCKASGYSFTTYWMNWVRQAPGQGLTWMGMIDPSDSETHYNHLFKDRVTMTVDKSTSTAYMELSSLRSEDTAVYYCTRAIGYWGQGTLVTVSS VL: DVVMTQSPLSLPVTLGQPASISCKSSLSLLDSEGKTYLNWFQQRPGQSPRPLISLVSKLDSGVPDRFSGSGSGTDFTLKISRVEAEDVGVYYCWQGTHFPLTFGGGTKVEIK yielded pKd of 8.60

polmab (antibody, human IgG1, kappa, V domains shown) VH: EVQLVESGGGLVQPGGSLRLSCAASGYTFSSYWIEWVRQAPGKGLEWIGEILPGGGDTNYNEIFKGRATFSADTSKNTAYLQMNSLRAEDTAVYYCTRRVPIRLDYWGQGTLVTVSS VL: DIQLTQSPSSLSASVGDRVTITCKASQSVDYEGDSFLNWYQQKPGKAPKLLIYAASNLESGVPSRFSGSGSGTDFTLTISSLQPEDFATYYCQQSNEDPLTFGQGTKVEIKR yielded pKd of 7.90
